Tested on: Aspergillus fumigatus
Assay: Broth microdilution of invasive fungal isolates (CLSI M27-A3/M38-A2), MEC
Assay type: cell-based
Details: 56 isolates
Starred links: 1 amine or outer side, 2 acyl side, 3 side chain; linkers in the order of their positions; H or OH if unused. Positions of bridges follow the written chain, without caps; N, C: chain ends. Non-standard residues stand in square brackets, D forms with d. Residues, ends and D or L forms follow the SMILES beside them. *: point of attachment. Orn(4R-OH,5R-OCH2CH2NMe3+) = C[N+](C)(C)CCO[C@@H](N[*:3])[C@H](O)C[C@H](N[*:1])C(=O)[*:2]; hTyr(3S-OH,4S-OH,3'-OSO3H) = N[C@H](C(=O)O)[C@H](O)[C@@H](O)c1ccc(O)c(OS(=O)(=O)O)c1; pTerphenylCO(4''-OnC5H11) = CCCCCOc1ccc(-c2ccc(-c3ccc(C(=O)*)cc3)cc2)cc1; Orn(4R-OH,5R-OH) = O=C([C@H](C[C@@H](O)[C@@H](O)N[*:3])N[*:1])[*:2]; hTyr(3S-OH,4S-OH) = N[C@H](C(=O)O)[C@H](O)[C@@H](O)c1ccc(O)cc1; Pro(3S-OH,4S-Me) = C[C@H]1CN[C@H](C(=O)O)[C@H]1O; X1 = CCCCCOc1ccc(-c2cc(-c3ccc(C(=O)*)cc3)no2)cc1; Gln(3R-OH) = NC(=O)C[C@@H](O)[C@H](N)C(=O)O; Hyp = O=C(O)[C@@H]1C[C@@H](O)CN1
quantityName: Cumulative % of isolates inhibited at MEC 0.03 μg/mL

CCCCCOc1ccc(-c2cc(-c3ccc(C(=O)N[C@H]4C[C@@H](O)[C@@H](O)NC(=O)[C@@H]5[C@@H](O)[C@@H](C)CN5C(=O)[C@H]([C@H](O)CC(N)=O)NC(=O)[C@H]([C@H](O)[C@@H](O)c5ccc(O)c(OS(=O)(=O)O)c5)NC(=O)[C@@H]5C[C@@H](O)CN5C(=O)[C@H]([C@@H](C)O)NC4=O)cc3)no2)cc1 [MCF, micafungin] (X1-[Orn(4R-OH,5R-OH)]T[Hyp][hTyr(3S-OH,4S-OH,3'-OSO3H)][Gln(3R-OH)][Pro(3S-OH,4S-Me)]; lactam 1-C)	(100.0) %
CCCCCOc1ccc(-c2ccc(-c3ccc(C(=O)N[C@H]4C[C@@H](O)[C@@H](OCC[N+](C)(C)C)NC(=O)[C@@H]5[C@@H](O)[C@@H](C)CN5C(=O)[C@H]([C@@H](C)O)NC(=O)[C@H]([C@H](O)[C@@H](O)c5ccc(O)cc5)NC(=O)[C@@H]5C[C@@H](O)CN5C(=O)[C@H]([C@@H](C)O)NC4=O)cc3)cc2)cc1 [Compound 1] ({pTerphenylCO(4''-OnC5H11)}-[Orn(4R-OH,5R-OCH2CH2NMe3+)]T[Hyp][hTyr(3S-OH,4S-OH)]T[Pro(3S-OH,4S-Me)]; lactam 1-C)	(100.0) %
CCCCCOc1ccc(-c2ccc(-c3ccc(C(=O)N[C@H]4C[C@@H](O)[C@@H](O)NC(=O)[C@@H]5[C@@H](O)[C@@H](C)CN5C(=O)[C@H]([C@@H](C)O)NC(=O)[C@H]([C@H](O)[C@@H](O)c5ccc(O)cc5)NC(=O)[C@@H]5C[C@@H](O)CN5C(=O)[C@H]([C@@H](C)O)NC4=O)cc3)cc2)cc1 [ANID, anidulafungin] ({pTerphenylCO(4''-OnC5H11)}-[Orn(4R-OH,5R-OH)]T[Hyp][hTyr(3S-OH,4S-OH)]T[Pro(3S-OH,4S-Me)]; lactam 1-C)	(100.0) %
